Assay: Generation of bioluminescence from luciferin borates upon treatment with hydrogen peroxide (luciferase light reaction)
Type: biochemical
Settings: H2O2 10 μM, phosphate buffer pH 6.87, 70 minutes
# average relative light units (bioluminescence) listing for each entry below

Some solved cases for reference:
{"compound": "O=C(O)C1CSC(c2nc3ccc(OCc4ccc(B(O)O)c5ccccc45)cc3s2)=N1 (stereo not shown)", "value.measured": "680,475 RLU"}
{"compound": "O=C(O)C1CSC(c2nc3ccc(OCc4c(B(O)O)ccc5ccccc45)cc3s2)=N1 (stereo not shown)", "value.measured": "19,891 RLU"}
{"compound": "O=C(O)C1CSC(c2nc3ccc(OCc4ccc(B(O)O)cc4)cc3s2)=N1 (stereo not shown)", "value.measured": "717,216 RLU"}

Consider CC(Oc1ccc2nc(C3=NC(C(=O)O)CS3)sc2c1)c1ccc(B(O)O)cc1 (stereo not shown) . Its measured average relative light units (bioluminescence) is 14,491 RLU

---

# average relative light units (bioluminescence) listing for each entry below
Assay: Generation of bioluminescence from luciferin borates upon treatment with hydrogen peroxide (luciferase light reaction)
Format: biochemical
Conditions: H2O2 5 μM, phosphate buffer pH 7.41, 70 minutes

Some solved cases for reference:
{"compound": "CC(Oc1ccc2nc(C3=NC(C(=O)O)CS3)sc2c1)c1ccc(B(O)O)cc1 (stereo not shown) [PBI 4425]", "value.measured": "14,549 RLU"}
{"compound": "O=C(O)C1CSC(c2nc3ccc(OCc4c(B(O)O)ccc5ccccc45)cc3s2)=N1 (stereo not shown) [PBI 4424]", "value.measured": "17,583 RLU"}
{"compound": "O=C(O)C1CSC(c2nc3ccc(OCc4ccc(B(O)O)c5ccccc45)cc3s2)=N1 (stereo not shown) [PBI 4013]", "value.measured": "760,900 RLU"}

With those in mind, consider the next compound.
Consider O=C(O)C1CSC(c2nc3ccc(OCc4ccc(B(O)O)cc4)cc3s2)=N1 (stereo not shown) [PBI 3048] . Its measured average relative light units (bioluminescence) is 794,181 RLU

---

Assay: Generation of bioluminescence from luciferin borates upon treatment with hydrogen peroxide (luciferase light reaction)
Format: biochemical
Details: H2O2 5 μM, phosphate buffer pH 6.87, 70 minutes
# average relative light units (bioluminescence) listing for each entry below

Some solved cases for reference:
{"compound": "O=C(O)C1CSC(c2nc3ccc(OCc4ccc(B(O)O)c5ccccc45)cc3s2)=N1 (stereo not shown)", "value.measured": "580,978 RLU"}
{"compound": "O=C(O)C1CSC(c2nc3ccc(OCc4ccc(B(O)O)cc4)cc3s2)=N1 (stereo not shown)", "value.measured": "521,375 RLU"}
{"compound": "CC(Oc1ccc2nc(C3=NC(C(=O)O)CS3)sc2c1)c1ccc(B(O)O)cc1 (stereo not shown)", "value.measured": "13,296 RLU"}

With those in mind, consider the next compound.
Consider O=C(O)C1CSC(c2nc3ccc(OCc4c(B(O)O)ccc5ccccc45)cc3s2)=N1 (stereo not shown) . Its measured average relative light units (bioluminescence) is 18,952 RLU

---

Assay: Generation of bioluminescence from luciferin borates upon treatment with hydrogen peroxide (luciferase light reaction)
Format: biochemical
Details: H2O2 15 μM, phosphate buffer pH 7.73, 70 minutes
Procedure: In this example, luciferin borates were incubated with hydrogen peroxide, and luciferin generation was measured using a light reaction catalyzed by luciferase. An increase in light output (bioluminescence) as a result of treatment of the luciferin borates with hydrogen peroxide indicates generation of luciferin as a result of the reaction with hydrogen peroxide. […]
# average relative light units (bioluminescence) listing for each entry below

Some solved cases for reference:
{"compound": "O=C(O)C1CSC(c2nc3ccc(OCc4ccc(B(O)O)c5ccccc45)cc3s2)=N1 (stereo not shown)", "value.measured": "2,209,227 RLU"}
{"compound": "O=C(O)C1CSC(c2nc3ccc(OCc4c(B(O)O)ccc5ccccc45)cc3s2)=N1 (stereo not shown)", "value.measured": "25,729 RLU"}
{"compound": "CC(Oc1ccc2nc(C3=NC(C(=O)O)CS3)sc2c1)c1ccc(B(O)O)cc1 (stereo not shown)", "value.measured": "15,789 RLU"}

With those in mind, consider the next compound.
Consider O=C(O)C1CSC(c2nc3ccc(OCc4ccc(B(O)O)cc4)cc3s2)=N1 (stereo not shown) . Its measured average relative light units (bioluminescence) is 2,713,251 RLU

Hey, just so you know, these numbers are from patent US8937183B2.
